- Test system: SNRK;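 further: kd values determined as follow-up on hits from a single-replicate KINOMEscan panel screen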
endpoint-label: Kd

| smiles-notation | result |
| --- | --- |
| Cn1cncc1-c1ccc2ncnc(Nc3ccc(OCc4ccccc4)cc3)c2c1 | 8.7 µM |

---

- Tested on: PRKD3
- condition-label: concentration: 1 μM, replicates: in singlicate; n = 1
endpoint-label: %Inh (%)

| smiles-notation | unit-spec | numeric-result |
| --- | --- | --- |
| COc1ccc2nc(-c3cccc(C)n3)nc(Nc3ccncc3)c2c1 | % | 100 |
| Cn1ccc2ncnc(Oc3ccc(NC(=O)Nc4ccccc4)cc3)c21 | % | 0 |
| Cn1ccc2ncnc(Oc3cccc(C(=O)Nc4ccccc4)c3)c21 | % | 0 |
| CCn1c(-c2ccccn2)nc2cnccc21 | % | 1 |
| O=c1cc(N2CCOCC2)nc2n(Cc3cccc(Cl)c3Cl)ccn12 | % | 0 |
| Cc1cc(N2Cc3ccccc3C2)nc(Nc2ccc(S(=O)(=O)N3CCOCC3)cc2)n1.Cl | % | 0 |
| COC(=O)c1c(-c2ccccc2)c2cc(C(=O)O)ccc2c(=O)n1Cc1ccccc1 | % | 3 |
| Cl.Oc1ccc(-c2nc(-c3ccccc3)[nH]c2-c2ccncc2)cc1 | % | 0 |
| Cc1ccc(NC(=O)Nc2cccc(Cl)c2)cc1-c1ccc(C(=O)Nc2ccncc2)cc1 | % | 22 |

---

- Test system: MEK6
- Construct: gene MAP2K6
- condition-label: concentration: 1 μM, replicates: in singlicate; n = 1

| compound | %Inh [%] |
| --- | --- |
| O=S(=O)(c1ccc(-c2ccnc3[nH]ccc23)cc1)N1CCCC1 [GSK846226] | 21 |
| Cn1ccc2ncnc(Oc3ccc(NC(=O)Nc4ccccc4)cc3)c21 | 0 |
| COc1ccc(Nc2nccc(NCCNC(=O)Nc3ccccc3F)n2)cc1 [GSK1379901] | 0 |
| COC(=O)c1c(-c2ccccc2)c2cc(OC)ccc2c(=O)n1Cc1ccccc1 | 21 |
| NC(=O)c1nnc2ccccc2c1N | 0 |
| COc1ccccc1-c1ccc2c(NC(=O)C3CC3)n[nH]c2n1 [SB-711239] | 0 |
| C[C@@H]1CCCCN1c1cc(-c2ccc3c(N)n[nH]c3c2)nc(N)n1 [GSK2258759] | 14 |
| CC1=C(C(=O)Nc2cc3cn[nH]c3cc2F)C(c2ccc(C(F)(F)F)cc2)CC(=O)N1 (stereo not drawn) [GSK429286] | 0 |
| COc1cc(Nc2nccc(N3CCC(NC(=O)Nc4cc(C)ccc4C)C3)n2)cc(OC)c1OC (stereo not drawn) [GSK1379762] | 0 |

---

- System: MARK2
- condition-label: concentration: 1 μM, replicates: in singlicate; n = 1
Measured %Inh of individual entries

| molecule | study-target | %Inh, % |
| --- | --- | --- |
| CS(=O)(=O)c1ccc(-c2c(-c3ncn[nH]3)sc(N3CCOCC3)c2C#N)cc1 | MARK2 | 10 |
| O=C(Nc1ccccc1)Nc1cccc(Oc2ccc3nccn3n2)c1 | MARK2 | 39 |
| Cn1ccc2ncnc(Oc3ccc(NC(=O)Nc4ccccc4)cc3)c21 | MARK2 | 0 |
| Nc1nc(-c2nccs2)c(-c2ccnc3ccccc23)s1 | MARK2 | 0 |
| O=C(Nc1n[nH]c2cc(-c3cccc(F)c3F)ccc12)C1CC1 | MARK2 | 25 |
| Cc1nnc(-c2ccc3occ(-c4ccc(S(C)=O)cc4)c3c2)[nH]1 (stereo not shown) | MARK2 | 22 |
| CN1C(=O)C(Nc2ccc(Cl)c(C(=O)O)c2)=C(c2ccc(Cl)cc2)C1=O | MARK2 | 27 |
| COc1ccc(C2=C(Nc3cccc(C(=O)O)c3)C(=O)NC2=O)cc1 | MARK2 | 8 |
| COc1ccc(Nc2nccc(-c3cccc(NC(=O)c4cc5cc(F)ccc5[nH]4)c3)n2)cc1 | MARK2 | 19 |
| Cc1cccc(-c2nc(Nc3ccc4[nH]ncc4c3)c3ccccc3n2)n1 | MARK2 | 0 |
| COc1cc2nccc(Nc3ccc(NC(=O)c4ccc(C)cc4)c(O)c3)c2cc1OC.Cl | MARK2 | 0 |
| CCn1c(-c2cccnc2O)nc2cnccc21 | MARK2 | 15 |
| Cc1cccc(-c2nc(Nc3cccc(C(N)=O)c3)c3ccccc3n2)n1 | MARK2 | 0 |
| O=C(O)COc1ncnc2cc(-c3ccc4[nH]ncc4c3)sc12 | MARK2 | 20 |
| O=S(=O)(c1ccc(-c2ccnc3[nH]ccc23)cc1)N1CCCC1 | MARK2 | 8 |
| Fc1cc(Cl)ccc1Nc1ccnc2cc(-c3ccc(CN4CCCCC4)o3)ccc12 | MARK2 | 0 |
| COC(=O)c1c(-c2ccccc2)c2cc(OC)ccc2c(=O)n1Cc1ccccc1 | MARK2 | 21 |
| Cn1ccc2ncnc(Oc3cccc(C(=O)Nc4ccccc4)c3)c21 | MARK2 | 0 |
| COc1cc2ncn(-c3cc(OCC4CCCO4)c(C(N)=O)s3)c2cc1OC (stereo not shown) | MARK2 | 0 |
